# TEST_SYSTEM: IPO5 (Homo sapiens, UniProt O00410)
# Construct: Expression and purification of full length IPOA5, IPO5 were perform according to methods described previously; His tag; made in house; host or cells: Escherichia coli BL21(DE3), pET21 vector
# Sequence (O00410 whole entry): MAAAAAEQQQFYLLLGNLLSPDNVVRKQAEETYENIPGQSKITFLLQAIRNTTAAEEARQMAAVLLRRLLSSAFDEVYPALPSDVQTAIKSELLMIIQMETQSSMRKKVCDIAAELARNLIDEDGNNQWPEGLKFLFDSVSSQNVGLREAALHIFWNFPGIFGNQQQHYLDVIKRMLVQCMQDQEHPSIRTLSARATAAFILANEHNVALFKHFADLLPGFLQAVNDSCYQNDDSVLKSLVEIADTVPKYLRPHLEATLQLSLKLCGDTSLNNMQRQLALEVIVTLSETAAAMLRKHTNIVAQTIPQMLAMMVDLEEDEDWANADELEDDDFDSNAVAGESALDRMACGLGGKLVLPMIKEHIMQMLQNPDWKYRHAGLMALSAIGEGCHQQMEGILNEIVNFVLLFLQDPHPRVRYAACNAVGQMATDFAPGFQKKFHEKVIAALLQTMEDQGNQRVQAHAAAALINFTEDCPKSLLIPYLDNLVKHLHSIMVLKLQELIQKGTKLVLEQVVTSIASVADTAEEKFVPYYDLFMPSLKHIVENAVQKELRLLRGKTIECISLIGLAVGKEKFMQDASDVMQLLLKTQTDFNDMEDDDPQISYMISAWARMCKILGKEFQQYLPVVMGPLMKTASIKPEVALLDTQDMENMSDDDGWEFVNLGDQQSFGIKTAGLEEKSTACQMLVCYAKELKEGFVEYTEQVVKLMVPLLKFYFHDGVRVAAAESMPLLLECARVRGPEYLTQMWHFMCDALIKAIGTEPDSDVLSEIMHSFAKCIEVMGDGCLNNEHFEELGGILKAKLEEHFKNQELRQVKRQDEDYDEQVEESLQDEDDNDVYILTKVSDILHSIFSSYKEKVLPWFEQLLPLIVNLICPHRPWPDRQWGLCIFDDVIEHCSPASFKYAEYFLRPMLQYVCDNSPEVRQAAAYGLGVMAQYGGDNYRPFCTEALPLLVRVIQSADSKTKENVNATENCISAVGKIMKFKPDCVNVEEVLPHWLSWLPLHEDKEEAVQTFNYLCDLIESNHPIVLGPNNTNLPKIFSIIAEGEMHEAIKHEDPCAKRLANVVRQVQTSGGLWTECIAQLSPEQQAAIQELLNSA
# TEST: biochemical
# Format: binding
Ends that are not written are not given here.
Recorded Kd for the following sequences
The reply must contain the numeric value and, after it, the unit.

// solved cases for Kd follow
MONOMER_SEQUENCE | ASSAY_RESULT
PPPRRRRTVRQIKIWFQNRRMKWKK [NS5A NLS] | 32.3 nM
PARRRGDKRRQIKIWFQNRRMKWKK [NS3 NLS 1] | 33.8 nM
RSQRRGRTTGRGRRQIKIWFQNRRMKWKK [NS3 NLS 2] | 35.8 nM

Would you kindly look at the next entry?
Entry PRHRSRNVGKRQIKIWFQNRRMKWKK [Core NLS 4] , IPO5 (Homo sapiens, UniProt O00410) data, Kd value: 105 nM
